The reported numbers originate from patent US8217140B2.

tested on: VWF; test: Pharmacodynamic profile: ristocetin cofactor activity assay (% RICO) after i.v. administration; format: in vivo, Cynomolgus monkey; conditions: time % RICO first drops below threshold; i.v. bolus 2 mg/kg
measuredAttribute: Tonset (h)
# value in h; strip the unit string

Memo: 12A2_sv1-AAA-12A2_sv1 (protein) DVQLVESGGGLVQPGGSLRLSCAASGRTFSYNPMGWFRQAPGKGRELVAAISRTGGSTYYPESVEGRFTISRDNAKRTVYLQMNSLRAEDTAVYYCAAAGVRAEQGRVRTLPSEYTFWGQGTQVTVSSAAAEVQLVESGGGLVQPGGSLRLSCAASGRTFSYNPMGWFRQAPGKGRELVAAISRTGGSTYYPESVEGRFTISRDNAKRTVYLQMNSLRAEDTAVYYCAAAGVRAEQGRVRTLPSEYTFWGQGTQVTVSS , reported Tonset: 0.077
